Experiment: Therapeutic index, ratio of HC10 for mouse RBC to IC50 for cytotoxicity against human HeLa cells
Type: toxicity, cell-based
Conditions: mouse RBC and HeLa cells, read-out: TI
Non-standard residues stand in square brackets, D forms with d. Residues, ends and D or L forms follow the SMILES beside them. Aad = N[C@@H](CCCC(=O)O)C(=O)O
measured_metric: selectivity ratio
Form: value (number only, do not type unit).

Request: What measured selectivity ratio goes with CC(C)C[C@H](NC(=O)[C@H](CC(C)C)NC(=O)[C@H](CCCCN)NC(=O)[C@H](CCCCN)NC(=O)[C@H](CC(C)C)NC(=O)[C@H](CC(C)C)NC(=O)[C@H](CCCCN)NC(=O)[C@H](CCCCN)NC(=O)[C@H](CC(C)C)NC(=O)[C@H](CC(C)C)NC(=O)[C@@H](N)CCCCN)C(=O)N[C@@H](CCCCN)C(N)=O (H-KLLKKLLKKLLK-NH2) ?
Result: 18.9

Request: Next up: CC(C)C[C@H](NC(=O)[C@H](CCCCN)NC(=O)[C@H](CCCCN)NC(=O)[C@H](CC(C)C)NC(=O)[C@H](CC(C)C)NC(=O)[C@H](CCCCN)NC(=O)[C@H](CCCCN)NC(=O)[C@H](CC(C)C)NC(=O)[C@H](CC(C)C)NC(=O)[C@H](CCCCN)NC(=O)[C@H](CCCCN)NC(=O)[C@H](CC(C)C)NC(=O)[C@@H](N)CC(C)C)C(=O)N[C@@H](CCCC(=O)O)C(N)=O (H-LLKKLLKKLLKKL[Aad]-NH2)
Result: 35.7

Request: Next up: CC(C)C[C@H](NC(=O)[C@H](CC(C)C)NC(=O)[C@H](CCCCN)NC(=O)[C@H](CCCCN)NC(=O)[C@H](CC(C)C)NC(=O)[C@H](CC(C)C)NC(=O)[C@H](CCCCN)NC(=O)[C@H](CCCCN)NC(=O)[C@H](CC(C)C)NC(=O)[C@H](CC(C)C)NC(=O)[C@H](CCCCN)NC(=O)[C@H](CC(C)C)NC(=O)[C@H](CC(C)C)NC(=O)[C@@H](N)CCCCN)C(N)=O (H-KLLKLLKKLLKKLL-NH2)
Result: 0.629

Request: Next up: CC(C)C[C@H](NC(=O)[C@H](CC(C)C)NC(=O)[C@H](CCCCN)NC(=O)[C@H](CCCCN)NC(=O)[C@H](CC(C)C)NC(=O)[C@H](CC(C)C)NC(=O)[C@H](CCCCN)NC(=O)[C@H](CCCCN)NC(=O)[C@H](CC(C)C)NC(=O)[C@H](CC(C)C)NC(=O)[C@H](CCC(=O)O)NC(=O)[C@H](CCCCN)NC(=O)[C@H](CC(C)C)NC(=O)[C@@H](N)CC(C)C)C(N)=O (H-LLKELLKKLLKKLL-NH2)
Result: 1.78

====

Test: Therapeutic index, ratio of HC10 for mouse RBC to IC50 for cytotoxicity against RG cells (unknown origin)
Format: toxicity, cell-based
Conditions: mouse RBC and RG cells, read-out: TI
Residues, ends and D or L forms follow the SMILES beside them.
measured_metric: selectivity ratio
Form: value (number only, do not type unit).

Request: What measured selectivity ratio goes with CC(C)C[C@H](NC(=O)[C@H](CC(C)C)NC(=O)[C@H](CCCCN)NC(=O)[C@H](CCCCN)NC(=O)[C@H](CC(C)C)NC(=O)[C@H](CC(C)C)NC(=O)[C@H](CCCCN)NC(=O)[C@H](CCCCN)NC(=O)[C@H](CC(C)C)NC(=O)[C@H](CC(C)C)NC(=O)[C@H](CCCCN)NC(=O)[C@H](CCC(=O)O)NC(=O)[C@H](CC(C)C)NC(=O)[C@@H](N)CC(C)C)C(N)=O (H-LLEKLLKKLLKKLL-NH2) ?
Result: 0.563

Request: Next up: CC(C)C[C@H](NC(=O)[C@H](CC(C)C)NC(=O)[C@H](CCCCN)NC(=O)[C@H](CCCCN)NC(=O)[C@H](CC(C)C)NC(=O)[C@H](CC(C)C)NC(=O)[C@H](CCCCN)NC(=O)[C@H](CCC(=O)O)NC(=O)[C@H](CC(C)C)NC(=O)[C@H](CC(C)C)NC(=O)[C@H](CCCCN)NC(=O)[C@H](CCCCN)NC(=O)[C@H](CC(C)C)NC(=O)[C@@H](N)CC(C)C)C(N)=O (H-LLKKLLEKLLKKLL-NH2)
Result: 2.18
